Reference for the values: patent US10294202B2

test system: pigweed; test: Test C pre-/postemergence herbicide test; assay type: in vivo, Amaranthus retroflexus; details: Preemergence, 125 g ai/ha; scale 0 to 100
Below, each of the compounds is paired with its reported Plant response rating, Pigweed value.
A bare number is all that is needed in reply.

Illustrative cases are given below, each with its answer.
>  <COMPOUND>
Cc1cccc(NC(=O)C2C(=O)NCC2c2cccc(C(F)(F)F)c2)c1 (centres unmarked)

>  <Plant response rating, Pigweed>
0

$$$$
>  <COMPOUND>
O=C1NCC(c2cccc(C(F)(F)F)c2)C1C(=O)Nc1cccc(Cl)c1F (centres unmarked)

>  <Plant response rating, Pigweed>
45

$$$$
>  <COMPOUND>
O=C1NCC(c2cccc(C(F)(F)F)c2)C1C(=O)Nc1ccccc1Cl (centres unmarked)

>  <Plant response rating, Pigweed>
45

$$$$
>  <COMPOUND>
O=C1NCC(c2cccc(Br)c2)C1C(=O)Nc1cccc(F)c1F (centres unmarked)

>  <Plant response rating, Pigweed>
0

$$$$

// next entry
In: If you can, please state the reported Plant response rating, Pigweed value of O=C1NCC(c2cccc(OC(F)F)c2)C1C(=O)Nc1cccc(F)c1F (centres unmarked) .
Out: 80
